target: Voltage-dependent L-type calcium channel subunit alpha-1C (Cavia porcellus, UniProt O35505); experiment: Inhibition of Calcium channel in Cavia porcellus albino (guinea pig) ileocecal SMC assessed as inhibition of 80 mM KCl-induced contraction
Sequence (O35505 whole entry): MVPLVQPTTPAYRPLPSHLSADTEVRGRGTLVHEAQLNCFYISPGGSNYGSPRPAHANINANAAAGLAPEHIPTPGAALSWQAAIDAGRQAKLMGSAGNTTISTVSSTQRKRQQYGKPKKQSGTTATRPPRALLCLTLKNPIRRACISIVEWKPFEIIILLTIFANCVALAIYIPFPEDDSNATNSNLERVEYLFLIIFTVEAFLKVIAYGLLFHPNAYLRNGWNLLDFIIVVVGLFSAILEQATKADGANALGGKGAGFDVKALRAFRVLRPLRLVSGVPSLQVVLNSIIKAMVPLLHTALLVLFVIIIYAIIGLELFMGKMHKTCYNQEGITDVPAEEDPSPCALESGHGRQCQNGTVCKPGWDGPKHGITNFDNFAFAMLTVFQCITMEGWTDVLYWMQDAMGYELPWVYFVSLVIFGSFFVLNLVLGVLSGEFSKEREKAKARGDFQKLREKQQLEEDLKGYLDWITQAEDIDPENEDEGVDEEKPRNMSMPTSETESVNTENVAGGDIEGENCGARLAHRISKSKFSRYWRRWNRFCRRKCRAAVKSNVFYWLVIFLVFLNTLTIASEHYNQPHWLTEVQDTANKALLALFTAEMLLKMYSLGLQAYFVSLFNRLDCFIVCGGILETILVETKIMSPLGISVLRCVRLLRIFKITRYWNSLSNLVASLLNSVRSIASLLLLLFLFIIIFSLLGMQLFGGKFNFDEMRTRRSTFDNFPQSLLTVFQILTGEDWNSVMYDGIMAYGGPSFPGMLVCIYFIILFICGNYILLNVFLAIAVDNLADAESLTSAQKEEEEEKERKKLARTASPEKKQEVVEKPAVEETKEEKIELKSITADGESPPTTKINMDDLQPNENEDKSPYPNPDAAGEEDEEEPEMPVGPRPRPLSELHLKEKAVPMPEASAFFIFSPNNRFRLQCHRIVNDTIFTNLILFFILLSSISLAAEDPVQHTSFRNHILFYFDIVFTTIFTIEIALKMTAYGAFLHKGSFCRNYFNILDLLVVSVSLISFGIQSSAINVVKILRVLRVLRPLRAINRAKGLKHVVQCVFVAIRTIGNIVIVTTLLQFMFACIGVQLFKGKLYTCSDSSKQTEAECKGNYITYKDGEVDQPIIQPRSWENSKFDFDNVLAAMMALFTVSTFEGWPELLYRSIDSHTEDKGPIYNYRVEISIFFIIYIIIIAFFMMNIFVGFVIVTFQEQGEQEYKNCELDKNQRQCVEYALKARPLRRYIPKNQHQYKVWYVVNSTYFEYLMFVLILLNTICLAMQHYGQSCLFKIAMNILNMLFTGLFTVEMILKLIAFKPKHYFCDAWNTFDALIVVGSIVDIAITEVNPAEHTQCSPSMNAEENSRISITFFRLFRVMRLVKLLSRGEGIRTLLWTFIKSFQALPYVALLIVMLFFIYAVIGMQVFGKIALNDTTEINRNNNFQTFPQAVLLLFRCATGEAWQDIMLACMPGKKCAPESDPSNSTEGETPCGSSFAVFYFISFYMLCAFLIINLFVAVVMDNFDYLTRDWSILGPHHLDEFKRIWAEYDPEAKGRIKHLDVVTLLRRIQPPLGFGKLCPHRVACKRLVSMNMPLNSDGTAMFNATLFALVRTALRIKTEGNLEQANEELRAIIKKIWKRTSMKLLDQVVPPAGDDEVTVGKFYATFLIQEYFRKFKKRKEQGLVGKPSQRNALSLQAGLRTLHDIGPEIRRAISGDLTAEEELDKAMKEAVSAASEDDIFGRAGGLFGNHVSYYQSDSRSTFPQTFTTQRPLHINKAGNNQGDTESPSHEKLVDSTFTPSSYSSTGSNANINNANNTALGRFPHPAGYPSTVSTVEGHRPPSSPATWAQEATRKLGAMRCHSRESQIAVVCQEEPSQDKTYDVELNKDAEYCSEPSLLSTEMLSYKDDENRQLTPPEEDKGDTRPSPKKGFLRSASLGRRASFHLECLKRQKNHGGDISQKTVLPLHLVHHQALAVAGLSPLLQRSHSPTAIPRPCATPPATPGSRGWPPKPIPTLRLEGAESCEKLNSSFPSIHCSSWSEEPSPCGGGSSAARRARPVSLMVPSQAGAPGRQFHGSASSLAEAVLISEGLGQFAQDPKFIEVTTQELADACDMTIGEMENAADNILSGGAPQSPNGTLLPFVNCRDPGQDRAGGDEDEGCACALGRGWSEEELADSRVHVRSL
Can you tell me pIC50 for the items I'm about to list?
In textbook form, pIC50 equals minus log to base ten of the concentration in mol/L.

Consider CCOC(=O)C1=C(C)NC(C)=C(C(=O)OC)C1c1cc(=O)cc(-c2ccccc2)o1 (stereo not given) . Its measured pIC50 is 5.69

Consider CCOC(=O)C1=C(C)NC(C)=C(C(=O)OCC)C1c1cc(=O)cc(-c2ccccc2)o1 . Its measured pIC50 is 5.49

Consider CCOC(=O)C1=C(C)NC(C)=C(C(=O)OC)C1c1cc(=O)cc(C)o1 (stereo not given) . Its measured pIC50 is 5.79

Consider CCOC(=O)C1=C(C)NC(C)=C(C(=O)OCC)C1c1ccc(-c2cc(=O)cc(C)o2)cc1 . Its measured pIC50 is 5.67

Consider CCOC(=O)C1=C(C)NC(C)=C(C(=O)OC)C1c1ccc(-c2cc(=O)cc(-c3ccccc3)o2)cc1 (stereo not given) . Its measured pIC50 is 4.03

Consider CCOC(=O)C1=C(C)NC(C)=C(C(=O)OC)C1c1ccc(-c2cc(=O)cc(C)o2)cc1 (stereo not given) . Its measured pIC50 is 4.06

Consider COC(=O)C1=C(C)NC(C)=C(C(=O)OC)C1c1ccc(-c2cc(=O)cc(C)o2)cc1 . Its measured pIC50 is 4.75

Consider COC(=O)C1=C(C)NC(C)=C(C(=O)OC)C1c1ccc(-c2cc(=O)cc(-c3ccccc3)o2)cc1 . Its measured pIC50 is 5.33

Consider CCOC(=O)C1=C(C)NC(C)=C(C(=O)OCC)C1c1cc(=O)cc(C)o1 . Its measured pIC50 is 4.44

Consider CCOC(=O)C1=C(C)NC(C)=C(C(=O)OCC)C1c1ccc(-c2cc(=O)cc(-c3ccccc3)o2)cc1 . Its measured pIC50 is 4.91

* * *

biological target: Voltage-dependent L-type calcium channel subunit alpha-1C (Cavia porcellus); experiment: Inhibition of Calcium channel in Cavia porcellus albino (guinea pig) ileocecal SMC assessed as inhibition of 80 mM KCl-induced contraction; conditions: guinea pig
assay.endpoint: IC30 (×10⁻⁷ M)
Numeric only. Scale: ×10⁻⁷ M

Consider CCOC(=O)C1=C(C)NC(C)=C(C(=O)OC)C1c1cc(=O)cc(-c2ccccc2)o1 (centres undefined) . Its measured IC30 is 7.18

Consider CCOC(=O)C1=C(C)NC(C)=C(C(=O)OCC)C1c1ccc(-c2cc(=O)cc(C)o2)cc1 . Its measured IC30 is 7.2

Consider CCOC(=O)C1=C(C)NC(C)=C(C(=O)OC)C1c1cc(=O)cc(C)o1 (centres undefined) . Its measured IC30 is 5.38
